# test-system: CXCR4 receptor (human, UniProt P61073 1-352)
# Sequence (P61073 whole entry): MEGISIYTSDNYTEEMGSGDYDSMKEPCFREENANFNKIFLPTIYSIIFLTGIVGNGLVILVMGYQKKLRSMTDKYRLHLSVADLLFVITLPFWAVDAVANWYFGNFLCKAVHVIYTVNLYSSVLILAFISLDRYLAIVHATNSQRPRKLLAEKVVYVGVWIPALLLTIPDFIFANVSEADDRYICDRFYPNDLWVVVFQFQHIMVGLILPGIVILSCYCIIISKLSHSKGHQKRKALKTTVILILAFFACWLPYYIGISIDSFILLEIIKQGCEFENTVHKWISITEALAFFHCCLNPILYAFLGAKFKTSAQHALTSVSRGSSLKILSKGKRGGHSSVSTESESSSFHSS
# assay-text: cell-based or functional assay
* marks the point of attachment. Palmitoyl = CCCCCCCCCCCCCCCC(=O)*
Entries and their Peak Ratio, CHTX, SUP B-15, 1.0 uM values follow.
Answer with the value's number alone.

The examples below pair each entry with its known result.
| binder | Peak Ratio, CHTX, SUP B-15, 1.0 uM |
| --- | --- |
| Palmitoyl-MGYQKKLRSMTDKYRL-NH2 (SMILES CCCCCCCCCCCCCCCC(=O)N[C@@H](CCSC)C(=O)NCC(=O)N[C@@H](Cc1ccc(O)cc1)C(=O)N[C@@H](CCC(N)=O)C(=O)N[C@@H](CCCCN)C(=O)N[C@@H](CCCCN)C(=O)N[C@@H](CC(C)C)C(=O)N[C@@H](CCCNC(=N)N)C(=O)N[C@@H](CO)C(=O)N[C@@H](CCSC)C(=O)N[C@H](C(=O)N[C@@H](CC(=O)O)C(=O)N[C@@H](CCCCN)C(=O)N[C@@H](Cc1ccc(O)cc1)C(=O)N[C@@H](CCCNC(=N)N)C(=O)N[C@@H](CC(C)C)C(N)=O)[C@@H](C)O) [Compound No. 38 (Pal-MGYQKKLRSMTDKYRL-amide)] | 0.2 |
| Palmitoyl-KKLRSMTDKYR-NH2 (SMILES CCCCCCCCCCCCCCCC(=O)N[C@@H](CCCCN)C(=O)N[C@@H](CCCCN)C(=O)N[C@@H](CC(C)C)C(=O)N[C@@H](CCCNC(=N)N)C(=O)N[C@@H](CO)C(=O)N[C@@H](CCSC)C(=O)N[C@H](C(=O)N[C@@H](CC(=O)O)C(=O)N[C@@H](CCCCN)C(=O)N[C@@H](Cc1ccc(O)cc1)C(=O)N[C@@H](CCCNC(=N)N)C(N)=O)[C@@H](C)O) [CXCR4 i1 loop compound 45] | 1 |
| Palmitoyl-KKLRSMTDKYRL-NH2 (SMILES CCCCCCCCCCCCCCCC(=O)N[C@@H](CCCCN)C(=O)N[C@@H](CCCCN)C(=O)N[C@@H](CC(C)C)C(=O)N[C@@H](CCCNC(=N)N)C(=O)N[C@@H](CO)C(=O)N[C@@H](CCSC)C(=O)N[C@H](C(=O)N[C@@H](CC(=O)O)C(=O)N[C@@H](CCCCN)C(=O)N[C@@H](Cc1ccc(O)cc1)C(=O)N[C@@H](CCCNC(=N)N)C(=O)N[C@@H](CC(C)C)C(N)=O)[C@@H](C)O) [Compound No. 44 (Pal-KKLRSMTDKYRL-amide)] | 0.2 |

Kindly review the next binder as well.
Any idea what its Peak Ratio, CHTX, SUP B-15, 1.0 uM is? The binder is Palmitoyl-KKLRSMTDKYRLHL-NH2 (SMILES CCCCCCCCCCCCCCCC(=O)N[C@@H](CCCCN)C(=O)N[C@@H](CCCCN)C(=O)N[C@@H](CC(C)C)C(=O)N[C@@H](CCCNC(=N)N)C(=O)N[C@@H](CO)C(=O)N[C@@H](CCSC)C(=O)N[C@H](C(=O)N[C@@H](CC(=O)O)C(=O)N[C@@H](CCCCN)C(=O)N[C@@H](Cc1ccc(O)cc1)C(=O)N[C@@H](CCCNC(=N)N)C(=O)N[C@@H](CC(C)C)C(=O)N[C@@H](Cc1c[nH]cn1)C(=O)N[C@@H](CC(C)C)C(N)=O)[C@@H](C)O) [CXCR4 i1 loop compound 42]
0.2
